- subjectOfTest: Plasmin
- procedureSummary: enzyme inhibition
pKi: −log10 of the molar value.
valueType: pKi

1. DD185 (peptide) EVVREVCSEQAETGPCRAAIFRWYFDVTEGKCAPFFYGGCGGNRNNFDTEEYCMAVCGSAI : 8.06
